Every entry's value here was drawn from patent US20240358755A1.

# system.name: T1, HLA-A*24:02 (human)
# T1 construct: Peptide-receptive MHC class I monomer in the UV-ligand exchange assay
# assay.protocol: UV peptide exchange, anti-b2m ELISA; exchange yield grade
# Description: Candidate peptides for T cell based therapies according to the present invention were further tested for their MHC binding capacity (affinity). The individual peptide-MHC complexes were produced by UV-ligand exchange, where a UV-sensitive peptide is cleaved upon UV-irradiation and exchanged with the peptide of interest as analyzed. Only peptide candidates that can effectively bind and stabilize the peptide-receptive MHC molecules prevent dissociation of the MHC complexes. […]
observed.property: binding result

Answered cases to consult:
- binder: "LYQTTIELF"
  binding result: "binds"
- binder: "SHSLPAFTL"
  binding result: "binds"
- binder: "IYIPTNSIYKF"
  binding result: "binds"
- binder: "IFDLSDPRF"
  binding result: "binds"

# evaluate next
Prompt: Which binding result is listed for "VQSGVPSRF" ?
Completion: binds
